assay: Identification of proteins required for the processing of the EWS-FLI1 nascent transcript; settings: TC32 Ewing sarcoma NR0B1-luc vs CMV-luc, 48 h; screened at 20 nM (by protocol);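 note: robust z of luciferase light less the median z of siRNAs with the same seed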
In all, about 59,000 sequences were measured (the read-out: median about -0.00055, lowest 2% from about -2 on). The sample as a whole holds a higher share of the lowest values than the screen did.
Measurement Name: seed-corrected z-score
Quick one: just the number, no unit, thanks!

Specify seed-corrected z-score for UUACGGACAUCCGAUCUUC against DPYS and stop. -0.0377

Specify reported seed-corrected z-score for the sequence shown: UUUAGCAACAGGUACAUUC against APBB1 -0.4

Return the recorded seed-corrected z-score value; entry: UAAGCGAUCCAUAUCAAAC against PROX1 0.491

Respond only with seed-corrected z-score recorded for UCAGGUGCAAUUGGGAGCU against TCEB1P3 -2.71

Identify seed-corrected z-score associated with the sequence ACUGCUUACACUCACAUGG against ZNF490 -4.22

Give the measured seed-corrected z-score for AAUUGUCCAACAUCAACGA against METTL2A -1.52

----------
experiment: Identification of proteins required for the processing of the EWS-FLI1 nascent transcript; conditions: TC32 Ewing sarcoma NR0B1-luc vs CMV-luc (EWS-FLI1 target promoter against control promoter), 48 h; screened at 20 nM (by protocol);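 note: robust z of luciferase light less the median z of siRNAs with the same seed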
Whole data set: some 59,000 sequences, median the read-out near -0.00055, cut for the lowest 2% near -2. The sample as a whole holds a higher share of the lowest values than the screen did.
Would you mind telling me the reported seed-corrected z-score of each entry?
Output: the number by itself.

Item UAUGUAACAGGAUCCUGCC against RFC1 : provide seed-corrected z-score 0.0202

Give seed-corrected z-score for the following sequence: UUAGGAACUCGAACGACGU against GTF2F1 0.889

Indicate the recorded seed-corrected z-score value for this sequence: UAUAGGCCUGCUGAGAUCG against GALT 0.826

Tell me measured seed-corrected z-score for AAACGUACAUGAUGGGAGC against GPR155 please. -0.807

Annotate the sequence AAAGGCGUAGAGGAGCUGG against TRIB3 with its measured seed-corrected z-score. -3.4

Supply recorded seed-corrected z-score for UGAACCUCUAGACUCAUAG against ZDBF2 here. -0.0347

Could you please provide reported seed-corrected z-score for UGUUAGGUAAGGCUAGGUC against UTS2B ? Thanks! 0.63

Please look at this sequence and report its seed-corrected z-score: AUAUGGUCCUUCUUAUUGC against HSD52 0.199

Consider the sequence ACAGUAAUCCAUAUGGAGG against GPR139 and give its recorded seed-corrected z-score. 0.177

Hello, please tell me recorded seed-corrected z-score for this one: UGGGUCAUGUGCUCUAUCC against HDGFL1 -0.0953

Please report seed-corrected z-score for the following sequence: AAUAUAACGACUAAUGUCC against CTNNBIP1 0.971

Let me know recorded seed-corrected z-score for AAUGUUGUAGUUGAUUAGC against CCDC178 , thanks. -0.836

Provide only the value of recorded seed-corrected z-score for UCAUCAUCAAAGGCGAUGG against GDNF -2.86

Identify the reported seed-corrected z-score for the following entry. UCUCUUCAUACUUAUUAGC against TEX43 -2.3

Identify seed-corrected z-score associated with the sequence ACACUCAAAAUUACCAGCU against LEMD2 -1.09

Return the recorded seed-corrected z-score value; entry: UUGGGUAUUGUUCUUGACU against SNRPD2 -2.58

Retrieve seed-corrected z-score measured for UUGGUAGAGAGGUAAAAUG against KRTAP4-4 and print it. 1.06

For the sequence UUCCGUUGAUUCUUUCUCC against KAT5 , give its reported seed-corrected z-score. -1.63

Output measured seed-corrected z-score for this item: UUCUAUUUAGGAGAGCUUC against RPS16P10 -1.32

Identify seed-corrected z-score associated with the sequence UUAUCUGUGACAUAAGUUG against ALG13 -2.26

Identify seed-corrected z-score associated with the sequence UAGGUAACCAUAGUACUCA against ISY1 -2.1

Quick one: give measured seed-corrected z-score for UCACCGUUCCAUUCAAGUC against IKBKB 0.0239

Answer with reported seed-corrected z-score of UCUUGCUCUAGUGUCCUGG against DNAJC17 -2.46

Please report seed-corrected z-score for the following sequence: UACGCGGGCAAACUUCUCC against LRRC14 0.0562

Item UUUGAAAUCAACAUAGAGG against LINC00574 : provide seed-corrected z-score -0.00543

Provide measured seed-corrected z-score value, entry: AUCCGGAUCAUCGAGUCUG against ATP1B4 -0.782
